# tested.target: human muscarinic M3 receptor (Homo sapiens)
# Construct: expressed in transfected cells
# Sequence (P20309 whole entry): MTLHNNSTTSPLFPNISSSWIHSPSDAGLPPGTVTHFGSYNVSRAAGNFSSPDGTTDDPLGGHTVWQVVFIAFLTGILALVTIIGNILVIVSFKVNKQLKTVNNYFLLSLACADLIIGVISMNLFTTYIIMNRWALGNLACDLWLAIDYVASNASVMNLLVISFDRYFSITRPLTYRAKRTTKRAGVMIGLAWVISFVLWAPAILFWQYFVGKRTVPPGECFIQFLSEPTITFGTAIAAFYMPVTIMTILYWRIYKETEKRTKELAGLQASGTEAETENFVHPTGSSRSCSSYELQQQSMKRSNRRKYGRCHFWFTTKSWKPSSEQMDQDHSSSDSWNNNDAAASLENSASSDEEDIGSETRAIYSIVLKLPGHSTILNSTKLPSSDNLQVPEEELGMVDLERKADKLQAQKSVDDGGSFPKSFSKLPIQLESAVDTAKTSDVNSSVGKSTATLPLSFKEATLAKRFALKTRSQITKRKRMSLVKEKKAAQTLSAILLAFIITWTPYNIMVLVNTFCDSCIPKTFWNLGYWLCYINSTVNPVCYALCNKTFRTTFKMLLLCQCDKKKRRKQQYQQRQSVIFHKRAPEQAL
# assay.info: Alphascreen Surefire phospho-ERK1/2 functional assay, M3
# Assay type: cell-based
# measurement.parameters: CHO, read-out: M3 % Emax cf. ACh
Category scheme (Emax): I: < 4%; II: ≥ 4% and < 20%; III: ≥ 20%

Would you mind sorting CCOC(=O)N[C@H]1CCN(C2CCC3(CC2)C(=O)Nc2ncc(Cl)cc23)C1 (single isomer, unassigned) [2-17 isomer 1] into the appropriate category? II

Hi there! Could you help me figure out the category for CCOC(=O)N1CCCN(C2CCC(C#N)(c3ccncc3)CC2)CC1 (mixture of isomers) [3-12 mixture of isomers] please? I

More entries:
Please report the category associated with CCOC(=O)N[C@@H]1CCN(C2CCC(C#N)(c3ccccc3F)CC2)C1 (single isomer, unassigned) [1-5 Isomer 2] , nothing else. III

Assign a bin to CCOC(=O)N[C@H]1CCN(C2CCC(C#N)(c3cccc(Cl)c3)CC2)C1 (single isomer, unassigned) [1-10 Isomer 2] II

Category lookup for the compound CCOC(=O)N1CCCN(C2CCC(C#N)(c3ccc(OCC)cn3)CC2)CC1 (single isomer, unassigned) [3-20 Isomer 2] I

Which bin should I file CCOC(=O)N1CC2CN(C3CCC(C#N)(c4ccccc4)CC3)CCC21 (single isomer, unassigned) [17-1 Isomer 2] under? II

Category of CCOC(=O)N1CCCN(C2CCC(C#N)(c3ccc(Br)cn3)CC2)CC1 (single isomer, unassigned) [3-17 Isomer 1] , please. I

Each compound maps to one class by Emax. Which class for CCOC(=O)N[C@H]1CCN(C2CCC(C#N)(c3ccc(F)cc3)CC2)C1 (single isomer, unassigned) [1-4 Isomer 2] ? II

----------
# tested.target: human muscarinic M4 receptor (Homo sapiens)
# Construct: expressed in transfected cells
# Sequence (P08173 whole entry): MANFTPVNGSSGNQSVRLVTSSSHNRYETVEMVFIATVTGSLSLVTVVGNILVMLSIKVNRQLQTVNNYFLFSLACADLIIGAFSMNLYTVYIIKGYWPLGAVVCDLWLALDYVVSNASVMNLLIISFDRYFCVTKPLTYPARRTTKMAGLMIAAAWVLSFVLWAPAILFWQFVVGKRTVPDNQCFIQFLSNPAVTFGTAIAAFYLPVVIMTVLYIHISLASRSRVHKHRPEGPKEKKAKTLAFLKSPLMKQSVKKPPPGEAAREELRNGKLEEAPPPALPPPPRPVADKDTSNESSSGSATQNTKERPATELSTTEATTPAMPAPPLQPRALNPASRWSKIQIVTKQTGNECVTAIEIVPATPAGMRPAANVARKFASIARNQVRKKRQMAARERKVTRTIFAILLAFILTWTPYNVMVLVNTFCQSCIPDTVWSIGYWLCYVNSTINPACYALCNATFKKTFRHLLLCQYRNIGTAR
# assay.info: Alphascreen Surefire phospho-ERK1/2 functional assay, M4
# Format: cell-based
# measurement.parameters: CHO cells stably expressing human M4; phospho-ERK1/2; read-out: pEC50 M4 (converted)
Param label: returns class 1 when EC50 < 500 nM, returns class 0 otherwise, including exact equality.

Past entries and their recorded results:
Given the entry CCCC(=O)N1CCCN(C2CCC3(CC2)C(=O)Nc2ccccc23)CC1 (single isomer, unassigned) [4-3 isomer 2] , would its reported EC50 be below 500 nM? class 0

Decide: EC50 of CCOC(=O)N1CCCN(C2CCC3(CC2)C(=O)Nc2ccc(C#N)cc23)CC1 (single isomer, unassigned) [4-14 isomer 1] strictly below 500 nM? class 0

Given CCOC(=O)N[C@H]1CCN(C2CCC3(CC2)C(=O)Nc2ccccc23)C1 (single isomer, unassigned) [2-1 isomer 1] , is recorded EC50 strictly lower than 500 nM? class 0

hey, is EC50 for CCOC(=O)N[C@H]1CCN(C2CCC(C#N)(c3ccccc3)CC2)C1 (single isomer, unassigned) [1-1 Isomer 2] lower than 500 nM or not? class 0

New cases:
Lab log: compare recorded EC50 with 500 nM; is it strictly lower for N#CC1(c2ccc(F)cn2)CCC(N[C@@H]2CC[C@H](c3nc(C(F)(F)F)no3)C2)CC1 (single isomer, unassigned) [28-1 Isomer 2] ? class 0

Field: below-cutoff. Rule: recorded EC50 strictly less than 500 nM. Subject: CCOC(=O)N1CCC2(CCN(C3CCC4(CC3)C(=O)Nc3ccccc34)CC2)C1 (single isomer, unassigned) [12-1 isomer 1] class 1

Input CCc1noc([C@H]2CC[C@@H](NC3CCC(C#N)(c4ccccc4)CC3)C2)n1 (single isomer, unassigned) [19-2 Isomer 2] ; condition: EC50 strictly below 500 nM. Does it hold? class 1

Does this compound meet the criterion EC50 < 500 nM? CCOC(=O)N1CCCN(C2CCC(C#N)(c3ccc(C(F)(F)F)cn3)CC2)CC1 (mixture of isomers) [3-21 mixture of isomers] class 0

API: query returns whether the compound falls strictly under 500 nM in EC50. Query: CCOC(=O)N1CCCN(C2CCC3(CC2)C(=O)Nc2cc(C)ccc23)CC1 (single isomer, unassigned) [4-6 isomer 1] class 0
